Data origin: ChEMBL document CHEMBL1136412

Test details: Clearance value at a dose of 0.2 mg/kg i.v.
Format: ADME, organism-based, Canis lupus familiaris
Parameters: dose 0.2 mg/kg, route intravenous
Measurement context: dog, in vivo, iv, read-out: Cls (converted)
Metric name: clearance (mL/min/kg)
Number in mL/min/kg, nothing else.

clearance lookup needed for CCC[C@H](C)n1c(CC)nc2c(-c3ccc(OC(F)(F)F)cc3Cl)nccc21 , thanks.
23.3
